For each entry below, report its IC50 value.

Short answer please: IC50, human adenosine A2A membrane preparation (Homo sapiens (Human), UniProt P29274), entry `Cc1ccn(-c2nc(N)cnc2-c2cc(Cl)c3[nH]ncc3c2)n1`
5.5 nM

Short answer please: IC50, human adenosine A2A membrane preparation (Homo sapiens (Human), UniProt P29274), entry `Cn1ccc(-c2nc(N)cnc2-c2cc(Cl)c3[nH]ncc3c2)n1`
9 nM

Short answer please: IC50, human adenosine A2A membrane preparation (Homo sapiens (Human), UniProt P29274), entry `Cc1ncc(-c2nc(N)cnc2-c2cc(Cl)c3ncccc3c2)s1`
9.4 nM

Short answer please: IC50, human adenosine A2A membrane preparation (Homo sapiens (Human), UniProt P29274), entry `Cc1ncc(-c2nc(N)cnc2-c2ccc3ncccc3c2)s1`
55.5 nM

Data origin: patent US11028058B2
